- Tested on: ADCK3
- Construct: gene CABC1
- condition.notes: concentration: 1 μM, replicates: in singlicate; n = 1;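 further: KINOMEscan kinase panel screen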
quantity.measured: %Inh (%)

INSERT INTO results (compound, endpoint_value) VALUES
  ('CC(C)NCC(Cc1ccccc1)NC(=O)c1cc(Br)c(-c2ccnc3[nH]ccc23)s1.Cl.Cl (stereo not shown)', 14),
  ('CNc1nccc(-c2ccc3c(N)n[nH]c3c2)n1', 1),
  ('Cl.O=C(Nc1ccc(Oc2ccc3[nH]c(NC(=O)c4ccco4)nc3c2)cc1)Nc1cc(C(F)(F)F)ccc1F', 0),
  ('Nc1ncc(-c2cn[nH]c2)c2scc(-c3ccc4c(c3)CCN4C(=O)Cc3ccccc3)c12', 0);

---

Recorded %Inh for the following compounds
- Tested on: TSSK3
- condition.notes: concentration: 1 μM, replicates: in singlicate; n = 1
quantity.measured: %Inh

INSERT INTO results (compound, endpoint_value) VALUES
  ('Cc1nn2c(=O)cc(N3CCO[C@H](C)C3)nc2n1Cc1cccc(Cl)c1Cl [GSK2373693]', '5%'),
  ('Cl.O=C(Nc1ccc(Oc2ccc3[nH]c(NC(=O)c4ccco4)nc3c2)cc1)Nc1cc(C(F)(F)F)ccc1F [GW683134]', '6%'),
  ('CN(c1ccc(NC(=O)Nc2cccc(Cl)c2)cc1)c1ccnc(N)n1.Cl [GW830707]', '0%'),
  ('COc1cc(Nc2nccc(N3CCC(NC(=O)Nc4ccc5c(c4)OCO5)C3)n2)cc(OC)c1OC (centres unmarked) [GSK1379766]', '9%'),
  ('CC(=O)Nc1cn2nc(Oc3cccc(NC(=O)c4cccc(C(F)(F)F)c4)c3)ccc2n1', '0%'),
  ('Cc1cc(-c2ccnc(Nc3cccc(C#N)c3)n2)cc(C)c1O [GSK1440913]', '7%'),
  ('CN(C)CCNS(=O)(=O)c1ccc(-c2ccnc3[nH]ccc23)cc1 [GSK977620]', '15%'),
  ('CN(c1ccc(NC(=O)N2CCN(CCCN3CCOCC3)CC2)cc1)c1ccnc(Nc2ccc(CS(C)(=O)=O)cc2)n1.Cl [GW830899]', '0%');

---

- Test system: PIK3CB
- condition.notes: concentration: 1 μM, replicates: in singlicate; n = 1
quantity.measured: %Inh

INSERT INTO results (molecule, measured_target, endpoint_value) VALUES
  ('COc1ccc(NC(=O)c2ccoc2)cc1-c1ccc(C(=O)NCC2CC2)cc1 [GW810437]', 'PIK3CB', '24%'),
  ('CN(C)CCNS(=O)(=O)c1ccc(-c2ccnc3[nH]ccc23)cc1 [GSK977620]', 'PIK3CB', '0%'),
  ('Cl.Cl.NCC(NC(=O)c1cc(-c2cccnc2)c(-c2ccnc3[nH]ccc23)s1)c1ccccc1 (stereo not shown) [GSK1323434]', 'PIK3CB', '0%'),
  ('Cn1cc(-c2ccc3c(c2)CCN3C(=O)Cc2cc(F)cc(F)c2F)c2c(N)ncnc21 [GSK2634140]', 'PIK3CB', '62%');

---

Recorded %Inh for the following molecules
- Test system: EPHA3
- condition.notes: concentration: 1 μM, replicates: in singlicate; n = 1
quantity.measured: %Inh (%)

INSERT INTO measurements (molecule, quantity_measured, unit_descriptor, endpoint_value) VALUES
  ('O=C1NC(=O)C(c2ccccc2Cl)=C1Nc1cccc(Cl)c1 [SB-342409]', '%Inh', '%', 0),
  ('CN(C)c1ncnc2nc[nH]c12 [SKF-31736]', '%Inh', '%', 8),
  ('CC(C)NCC(Cc1ccccc1)NC(=O)c1cc(Br)c(-c2ccnc3[nH]ccc23)s1.Cl.Cl (stereo not drawn) [GSK1383281]', '%Inh', '%', 8),
  ('Cc1ccc(NC(=O)c2ccc(Cl)c(Cl)c2)cc1-c1ccc(C(=O)Nc2ccncc2)cc1 [GSK1398460]', '%Inh', '%', 1),
  ('Nc1ncnc2scc(-c3ccc(NC(=O)Cc4cc(F)ccc4F)cc3)c12.O=C(O)C(F)(F)F [SB-731254-M]', '%Inh', '%', 21),
  ('Cn1cc(-c2cnc(N)c3c(-c4ccc5c(c4)CCN5C(=O)Cc4ccccc4)csc23)cn1 [GSK2593074]', '%Inh', '%', 0),
  ('O=C(Nc1n[nH]c2nc(-c3cccc(O)c3)ccc12)C1CC1 [SB-711805]', '%Inh', '%', 19),
  ('COc1ccc(C2=C(Nc3cccc(O)c3)C(=O)NC2=O)cc1 [SB-390766]', '%Inh', '%', 0),
  ('COc1ccc(C)c(Nc2ccnc(Nc3ccc(-c4cnc[nH]4)cc3)n2)c1.Cl [GW784041]', '%Inh', '%', 3);
